# target-or-test-system: T1, Recombinant human G-CSFR (Glu25-Pro621, 381-GR/CF, R&D Systems) (human, UniProt Q99062 25-621)
# T1 construct: range 25-621; Bought protein, amine-coupled to a CM5 chip for SPR; also called rhG-CSFR; granulocyte-colony stimulating factor receptor
# T1 sequence (looked up): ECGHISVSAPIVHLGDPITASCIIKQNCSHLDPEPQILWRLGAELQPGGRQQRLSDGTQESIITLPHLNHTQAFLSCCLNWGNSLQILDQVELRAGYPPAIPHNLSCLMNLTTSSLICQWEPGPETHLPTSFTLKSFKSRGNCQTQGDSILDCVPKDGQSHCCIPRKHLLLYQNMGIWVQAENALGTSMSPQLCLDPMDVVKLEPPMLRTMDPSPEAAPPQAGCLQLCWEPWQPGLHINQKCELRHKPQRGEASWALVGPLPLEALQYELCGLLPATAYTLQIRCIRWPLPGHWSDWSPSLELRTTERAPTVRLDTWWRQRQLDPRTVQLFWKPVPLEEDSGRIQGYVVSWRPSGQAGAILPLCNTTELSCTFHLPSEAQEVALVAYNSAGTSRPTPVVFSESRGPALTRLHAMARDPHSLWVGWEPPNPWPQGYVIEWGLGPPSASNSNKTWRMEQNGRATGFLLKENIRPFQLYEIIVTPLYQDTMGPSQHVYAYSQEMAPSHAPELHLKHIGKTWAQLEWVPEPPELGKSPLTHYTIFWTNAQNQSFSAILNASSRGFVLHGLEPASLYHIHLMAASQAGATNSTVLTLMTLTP
# method: SPR, Biacore X100, multi-cycle kinetics, rhG-CSFR amine-coupled to CM5 chip, design as analyte, 1:1 model; series of Fig. 13 (from 31 nM)
Overview of reported koff across a group of binders:
Supply the numeric figure in s⁻¹, leaving out any unit text.

Before answering, review these 3 worked examples.
binder: bv22 (designed binder, Expressed from pET28a with N-terminal His-tag and thrombin cleavage site; also called Boskar4 variant bv22; second-generation variant) MAALAAALAEIYKGLAEYQARLKSLEGISPELGPALDALRYDMADFAYLMAQAMEEGLDSLPQRFLWKALEMIRKIQADAAALREKLAATYKGNDRAAAAVEIAAQLEAFLEKAYQILRHLAAA
koff, s⁻¹: 0.00092
//
binder: bv23 (designed binder, Expressed from pET28a with N-terminal His-tag and thrombin cleavage site; also called Boskar4 variant bv23) MAALAAALAEIYKGLAEYQARLKSLEGISPELGPALDALRYDMADFAYLMAQAMEEGLDSLPQSFLWKALEMIRWIQADAAALREKLAATYKGNDRAAAAVEIAAQLEAFLEKAYQILRHLAAA
koff, s⁻¹: 0.0015
//
binder: bv21 (designed binder, Expressed from pET28a with N-terminal His-tag and thrombin cleavage site; also called Boskar4 variant bv21) MAALAAALAEIYKGLAEYQARLKSLEGISPELGPALDALRWDMADFAYLMAQAMEEGLDSLPQRFLWKALEMIRKIQADAAALREKLAATYKGNDRAAAAVEIAAQLEAFLEKAYQILRHLAAA
koff, s⁻¹: 0.0011

Shift focus to the following entry.
Exercise: If you can, please state the reported koff value of bv24 (designed binder, Expressed from pET28a with N-terminal His-tag and thrombin cleavage site; also called Boskar4 variant bv24) MAALAAALAEIYKGLAEYQARLKSLEGISPELGPALDALRWDMADFACLMAQAMEEGLDSLPQRFLWKALEMIRKIQADAAALREKLAATYKGNDRAAAAVEIAAQLEAFLEKAYQILRHLAAA .
Key: 0.0017
